Reference source: patent US9790253B2

target: OSBP1-myc-his (Homo sapiens); construct: made in house; host or cells: HEK-293T (transient transfection; S100 lysate, not purified); assay: [3H]-25-hydroxycholesterol charcoal-dextran binding assay with OSBP1-myc-his
Sequence (P22059 whole entry): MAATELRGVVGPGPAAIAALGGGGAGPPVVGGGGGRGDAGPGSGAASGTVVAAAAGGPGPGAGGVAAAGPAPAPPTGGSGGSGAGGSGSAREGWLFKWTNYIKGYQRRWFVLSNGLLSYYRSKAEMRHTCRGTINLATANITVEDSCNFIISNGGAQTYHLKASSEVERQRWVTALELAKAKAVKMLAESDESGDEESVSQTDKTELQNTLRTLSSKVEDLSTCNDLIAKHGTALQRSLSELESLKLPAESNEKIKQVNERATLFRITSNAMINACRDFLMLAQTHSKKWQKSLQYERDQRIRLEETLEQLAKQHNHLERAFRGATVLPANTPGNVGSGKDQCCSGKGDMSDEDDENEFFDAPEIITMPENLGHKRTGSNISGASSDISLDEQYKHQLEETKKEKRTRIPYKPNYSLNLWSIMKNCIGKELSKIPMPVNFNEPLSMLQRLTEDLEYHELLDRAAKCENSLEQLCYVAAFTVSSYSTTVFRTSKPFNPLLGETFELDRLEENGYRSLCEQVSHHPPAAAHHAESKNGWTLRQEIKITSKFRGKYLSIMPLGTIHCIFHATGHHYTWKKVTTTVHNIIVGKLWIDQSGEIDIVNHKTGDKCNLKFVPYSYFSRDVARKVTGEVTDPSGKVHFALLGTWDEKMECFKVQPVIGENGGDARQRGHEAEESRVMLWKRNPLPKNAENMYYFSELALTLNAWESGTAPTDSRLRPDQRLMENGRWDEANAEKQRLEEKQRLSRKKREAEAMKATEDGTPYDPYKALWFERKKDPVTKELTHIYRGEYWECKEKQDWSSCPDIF
METRIC NAME: Ki (nM)
# unit: nM | format: bare number

Below, 3 compounds whose answers are already recorded.
COMPOUND	Ki (nM)
C=CCOC(=O)NCc1ccc(CNC(=O)OC2COC(OC3C(O)COC(O[C@H]4C[C@H]5[C@@H]6CC=C7C[C@@H](O)CC[C@]7(C)C6CC[C@]5(C)[C@@]4(O)[C@H](C)C(=O)CCC(C)C)C3OC(C)=O)C(OC(=O)c3ccc(OC)cc3)C2O)cc1 (stereo partly shown) [Compound 6c]	46
C=CCOC(=O)NCc1ccc(CNC(=O)OC2C(O)COC(OC3C(O)COC(O[C@H]4C[C@H]5[C@@H]6CC=C7C[C@@H](O)CC[C@]7(C)C6CC[C@]5(C)[C@@]4(O)[C@H](C)C(=O)CCC(C)C)C3OC(C)=O)C2OC(=O)c2ccc(OC)cc2)cc1 (stereo partly shown) [Compound 6a]	18
CC(C)CCC(=O)[C@@H](C)[C@@]1(O)[C@@H](OC2OCC(O)C(OC3OCC(O)C(O)C3O)C2O)C[C@H]2[C@@H]3CC=C4C[C@@H](O)CC[C@]4(C)C3CC[C@@]21C (stereo partly shown) [Compound 8]	170

For CC(=O)OC1C(O[C@H]2C[C@H]3[C@@H]4CC=C5C[C@@H](O)CC[C@]5(C)C4CC[C@]3(C)[C@@]2(O)[C@H](C)C(=O)CCC(C)C)OCC(O)C1OC1OCC(O)C(O)C1O (stereo partly shown) [Compound 7] the compound record lists Ki as 63
